These entries and their values trace back to the supplement of paper PMC11246515.

assay: total protein half-life in vivo (active degradation + dilution); higher = more stable protein; conditions: wild type E. coli NCM3722; growth: C-lim chemostat; doubling time 6 h
value_type: total protein half-life in vivo
Could you kindly put the unit after your number?

residue_codes | value_type | reading
MQKRAIYPGTFDPITNGHIDIVTRATQMFDHVILAIAASPSKKPMFTLEERVALAQQATAHLGNVEVVGFSDLMANFARNQHATVLIRGLRAVADFEYEMQLAHMNRHLMPELESVFLMPSKEWSFISSSLVKEVARHQGDVTHFLPENVHQALMAKLA [P0A6I6] | total protein half-life in vivo | 6.01 h

Exercise: Hello, please tell me recorded total protein half-life in vivo for this one: MSFFHASQRDALNQSLAEVQGQINVSFEFFPPRTSEMEQTLWNSIDRLSSLKPKFVSVTYGANSGERDRTHSIIKGIKDRTGLEAAPHLTCIDATPDELRTIARDYWNNGIRHIVALRGDLPPGSGKPEMYASDLVTLLKEVADFDISVAAYPEVHPEAKSAQADLLNLKRKVDAGANRAITQFFFDVESYLRFRDRCVSAGIDVEIIPGILPVSNFKQAKKFADMTNVRIPAWMAQMFDGLDDDAETRKLVGANIAMDMVKILSREGVKDFHFYTLNRAEMSYAICHTLGVRPGL [P0AEZ1]
Solution: 4.97 h
